For each record, write down the corresponding IC50.
Target: UniProtKB P11940
Sequence (P11940 whole entry, the tested form may be a part): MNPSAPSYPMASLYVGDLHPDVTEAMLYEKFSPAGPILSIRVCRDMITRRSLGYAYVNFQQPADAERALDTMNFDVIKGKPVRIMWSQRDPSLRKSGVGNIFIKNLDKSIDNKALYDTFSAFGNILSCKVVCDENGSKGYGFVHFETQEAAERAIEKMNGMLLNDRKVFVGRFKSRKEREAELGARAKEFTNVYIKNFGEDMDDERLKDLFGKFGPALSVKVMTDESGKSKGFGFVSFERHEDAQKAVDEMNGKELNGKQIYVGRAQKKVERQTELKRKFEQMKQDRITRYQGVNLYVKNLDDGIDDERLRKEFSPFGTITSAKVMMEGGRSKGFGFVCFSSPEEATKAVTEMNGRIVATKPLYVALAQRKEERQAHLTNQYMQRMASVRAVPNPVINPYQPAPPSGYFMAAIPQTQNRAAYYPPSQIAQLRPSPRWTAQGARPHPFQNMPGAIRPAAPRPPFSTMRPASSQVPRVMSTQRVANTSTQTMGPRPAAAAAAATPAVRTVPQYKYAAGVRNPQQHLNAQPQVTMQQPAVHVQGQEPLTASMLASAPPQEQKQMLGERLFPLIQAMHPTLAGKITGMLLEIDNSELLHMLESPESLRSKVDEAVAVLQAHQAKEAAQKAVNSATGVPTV
Assay: MLLE domain peptide-binding blockers, IC50 – biochemical, fluorescence polarization, FITC-PAM2 peptide, dose response (AID 602259)
Format: functional
Settings: read-out: IC50_Mean
Calls of active or inactive are those of the source.

Please look up its IC50: Cc1cc2ccccc2n1CCNC(=O)c1ccc(Br)o1 > 66 µM (inactive)

Please look up its IC50: CN(C=[N+](C)C)c1cccc2c1C(=O)c1ccccc1C2=O 58.5 µM (inactive)

Please look up its IC50: COC(=O)Nc1nnc(-c2ccncc2)s1 > 66 µM (inactive)

###

Molecular target: Rac GTPase-activating protein 1 (Homo sapiens, UniProt Q9H0H5)
Sequence (Q9H0H5 whole entry): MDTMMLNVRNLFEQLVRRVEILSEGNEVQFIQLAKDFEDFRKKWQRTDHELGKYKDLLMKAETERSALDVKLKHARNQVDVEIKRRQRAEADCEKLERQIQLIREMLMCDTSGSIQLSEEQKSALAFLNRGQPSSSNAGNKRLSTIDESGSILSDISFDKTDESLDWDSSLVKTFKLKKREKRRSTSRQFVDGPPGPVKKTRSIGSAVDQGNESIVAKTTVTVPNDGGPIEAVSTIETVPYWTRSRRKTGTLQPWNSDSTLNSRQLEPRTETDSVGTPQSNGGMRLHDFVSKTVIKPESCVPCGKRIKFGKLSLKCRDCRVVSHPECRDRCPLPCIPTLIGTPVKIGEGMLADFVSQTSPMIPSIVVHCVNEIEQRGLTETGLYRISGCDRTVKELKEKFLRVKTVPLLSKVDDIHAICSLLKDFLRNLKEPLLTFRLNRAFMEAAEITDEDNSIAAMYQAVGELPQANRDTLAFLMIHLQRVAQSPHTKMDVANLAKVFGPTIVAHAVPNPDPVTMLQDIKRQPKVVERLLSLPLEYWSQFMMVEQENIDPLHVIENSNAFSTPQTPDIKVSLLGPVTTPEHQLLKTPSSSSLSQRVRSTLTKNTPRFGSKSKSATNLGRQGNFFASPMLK
Assay: blockers of MgcRacGAP-driven Rac1 GTP hydrolysis – biochemical, ADP Hunter fluorescence, primary and confirmatory, confirmation (AID 624330)
Type: functional
Active and inactive are the calls of the source.
For each record, write down the corresponding IC50.

Please look up its IC50: COc1cc(C=C2NC(=O)NC2=O)ccc1O 19 µM (active)

Please look up its IC50: COc1ccc(CNCCc2ccc(Cl)cc2)c(OC)c1OC 259 µM (active)

Please look up its IC50: O=S(=O)(c1ccc2ccccc2c1)N1CCN(c2ccc(O)cc2)CC1 35.8 µM (active)

Please look up its IC50: O=c1c2ccc(F)cc2sn1-c1ccccc1 36.4 µM (active)

Please look up its IC50: CCOc1cc(C2NN=C(c3ccc(C)cc3)S2)ccc1O (configuration not stated) 112 µM (active)

Please look up its IC50: O=C(Nc1nnc(S)s1)c1ccco1 102 µM (active)

Please look up its IC50: COc1cc(OC)c(OC)cc1/C=N/N(C)c1ccccc1 43.7 µM (active)

###

For each record, write down the corresponding EC50.
Assay: Trypanosoma cruzi growth suppression in host cells – NIH3T3 host cells, beta-gal luminescence, confirmation (AID 2044);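 also: intracellular parasites grown in NIH/3T3 mouse fibroblasts as host cells; luminescent beta-galactosidase reporter signal from transgenic T. cruzi replicating inside host cells; inhibitors lower the luminescence signal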
Type: functional, cell-based
Activity calls are given as the source filed them.

Please look up its EC50: Cc1cc(Br)ccc1OCCCCN1CCCCC1 750 nM (active)

Please look up its EC50: O=C(NC1CCN(Cc2ccccc2)CC1)c1ccc(Cn2c(=S)[nH]c3ccc(N4CCOCC4)cc3c2=O)cc1 1300 nM (active)

Please look up its EC50: Cc1sc(N/N=C/C=C/c2ccccc2)nc1-c1ccccc1 2670 nM (active)

Please look up its EC50: O=C(N/N=C/c1ccc([N+](=O)[O-])o1)c1cn(-c2ccccc2)nc1-c1ccc(Cl)cc1 < 100 nM (active)

Please look up its EC50: CCN1CCN(c2ccc(S(=O)(=O)N3CCCCC3)cc2NC(=O)c2cc3ccccc3o2)CC1 310 nM (active)
